Hello, the source for this data is paper PMC5397059, in case you need it.

ASSAY TEXT: Intrinsic clearance (CLint) assay, human liver microsomes
Type: in vitro ADME
CONDITION NOTES: predicted metabolic clearance
Non-standard residues stand in square brackets, D forms with d. Residues, ends and D or L forms follow the SMILES beside them. dPhe(4-Cl) = N[C@H](Cc1ccc(Cl)cc1)C(=O)O; NMeN = CN[C@@H](CC(N)=O)C(=O)O; dNMeL = CN[C@H](CC(C)C)C(=O)O; dOrn = NCCC[C@@H](N)C(=O)O
Some compounds, each annotated with its measured CLpred Human.
REPORTED PROPERTY: CLpred Human

compound="CC[C@H](C)[C@@H]1NC(=O)[C@H](Cc2c[nH]c3ccccc23)NC(=O)[C@@H](CCCN)NC(=O)[C@H](CC(N)=O)NC(=O)[C@H](C(C)C)NC(=O)[C@@H](CC(C)C)NC1=O [Compound 19c] (cyclo(I[dL]VN[dOrn]W))" result="<6.35 mL/min/kg"
compound="COc1ccc(C[C@@H]2NC(=O)[C@@H](CCCN)NC(=O)[C@H](CC(N)=O)NC(=O)[C@H](C(C)C)NC(=O)[C@@H](CC(C)C)NC(=O)[C@H](CC(C)C)NC2=O)cc1 [Compound 15c] (cyclo(L[dL]VN[dOrn]Y(Me)))" result="<6.35 mL/min/kg"
compound="CC(C)C[C@@H]1NC(=O)[C@@H](CC(C)C)NC(=O)[C@@H](CCCN)NC(=O)[C@H](CC(N)=O)NC(=O)[C@H](C(C)C)NC(=O)[C@H](Cc2c[nH]c3ccccc23)NC1=O [Compound 21c] (cyclo(LWVN[dOrn][dL]))" result="<6.35 mL/min/kg"
compound="CC[C@H](C)[C@@H]1NC(=O)[C@H](CC(C)C)NC(=O)[C@H](Cc2c[nH]c3ccccc23)NC(=O)[C@@H](CCCN)NC(=O)[C@H](CC(N)=O)NC(=O)[C@H](C(C)C)NC1=O [Compound 20c] (cyclo(IVN[dOrn]WL))" result="<6.35 mL/min/kg"
compound="CC(C)C[C@@H]1NC(=O)[C@H](Cc2c[nH]c3ccccc23)NC(=O)[C@@H](CCCN)NC(=O)[C@H](CC(N)=O)N(C)C(=O)[C@H](C(C)C)NC(=O)[C@@H](CC(C)C)N(C)C1=O [Compound 25c] (cyclo(L[dNMeL]V[NMeN][dOrn]W))" result="<6.35 mL/min/kg"
compound="CC(C)C[C@H]1NC(=O)[C@@H](Cc2ccc(Cl)cc2)NC(=O)[C@H](Cc2c[nH]c3ccccc23)NC(=O)[C@@H](CCCN)NC(=O)[C@H](CC(N)=O)NC(=O)[C@H](C(C)C)NC1=O [Compound 17c] (cyclo(N[dOrn]W[dPhe(4-Cl)][dL]V))" result="<6.35 mL/min/kg"
